# system-name: Human cGAS amino acids 155-522 (Homo sapiens, UniProt Q8N884)
# Construct: hexahistidine tag (N, cleaved yes); made in house; host or cells: E. coli BL21 DE3 Rosetta 2
# Sequence (Q8N884 157-522): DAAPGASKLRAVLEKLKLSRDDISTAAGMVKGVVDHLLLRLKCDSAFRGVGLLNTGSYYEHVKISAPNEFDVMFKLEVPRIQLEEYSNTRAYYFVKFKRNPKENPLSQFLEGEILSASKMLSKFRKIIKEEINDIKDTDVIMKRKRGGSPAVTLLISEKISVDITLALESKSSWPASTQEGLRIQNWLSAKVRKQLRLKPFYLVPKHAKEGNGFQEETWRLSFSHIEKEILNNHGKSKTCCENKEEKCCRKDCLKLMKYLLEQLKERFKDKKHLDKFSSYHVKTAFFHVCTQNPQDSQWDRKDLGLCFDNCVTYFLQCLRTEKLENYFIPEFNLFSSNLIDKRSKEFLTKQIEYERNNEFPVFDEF
# procedure-text: cGAS activity assay (DNA-activated cGAS, remaining ATP measured by Kinase-Glo Max luciferase assay)
# Format: biochemical
# settings: 300 nM purified cGAS, 1 μM dsDNA, 250 μM ATP, 100 μM GTP, 37° C. for 1.25 hours
pIC50: −log10 of the molar value.
Please provide measured pIC50 for the entries that follow.

Sample answers from the record:
compound	pIC50
CN(C)C(=O)[C@H](Cc1ccc(C#N)cc1)Nc1ncnc(Nc2cccc(CN3CCN(C(=O)OC(C)(C)C)CC3)c2)n1 [TA1010]	< 3.60
COC(=O)[C@H](Cc1ccc(C#N)cc1)Nc1nc(Nc2cccc(CN3CCNCC3)c2)nc(N(C)CCc2nc3ccc(OC)cc3[nH]2)n1 [TA1052]	3.60 to 4.70

Required: pIC50, one value per compound below.
1. COC(=O)[C@H](Cc1ccc(C#N)cc1)Nc1nc(Nc2cccc(CN3CCN(C(=O)c4cnccn4)CC3)c2)nc(N(C)CCc2nc3ccc(OC)cc3[nH]2)n1 [TA1054]
2. CNC(=O)[C@H](Cc1ccc(C#N)cc1)Nc1nc(NCc2nc3cc(F)ccc3[nH]2)nc(Nc2cccc(CN3CCN(C(=O)c4nccnc4O)CC3)c2)n1 [TA1024]
3. COCCOCCNC(=O)[C@H](Cc1ccc(C#N)cc1)Nc1nc(NCc2nc3cc(F)ccc3[nH]2)nc(Nc2cccc(CN3CCN(C(=O)c4nccnc4OC)CC3)c2)n1 [TA1029]
4. COC(=O)[C@H](Cc1ccccc1)Nc1nc(NCc2nc3cc(F)ccc3[nH]2)nc(Nc2cccc(CN3CCNCC3)c2)n1 [TA1064]

["< 3.60", "> 4.70", "< 3.60", "< 3.60"]

====

Please provide measured pIC50 for the entries that follow.
# system-name: Human cGAS amino acids 155-522 (Homo sapiens)
# Construct: hexahistidine tag (N, cleaved yes)
# procedure-text: cGAS activity assay (DNA-activated cGAS, remaining ATP measured by Kinase-Glo Max luciferase assay)
# settings: 300 nM purified cGAS, 1 μM dsDNA, 250 μM ATP, 100 μM GTP, 37° C. for 1.25 hours
# Experimental: IC50 values were determined as follows: Human cGAS sequence encoding amino acids 155-522 was cloned into a pET (EMD Millipore) based expression plasmid. […] Protein was expressed and purified from E. coli BL21 DE3 Rosetta 2 (EMD Millipore) cells using standard techniques. […] Protein was quantified using 280 nm absorbance. […] Reactions were stopped and ATP levels in the reaction were measured using a luciferase based assay. […] Luminescence was measured on a plate reader (Molecular Devices). […]
pIC50: −log10 of the molar value.

Sample answers from the record:
structure	result-value
COC(=O)[C@H](CC1CCCCC1)Nc1nc(NCc2nc3cc(F)ccc3[nH]2)nc(Nc2cccc(CN3CCN(C(=O)c4nccnc4O)CC3)c2)n1	> 4.70
COC(=O)[C@H](Cc1ccc(C#N)cc1)Nc1nc(NCc2nccn2C)nc(Nc2cccc(CN3CCN(C(=O)c4nccnc4O)CC3)c2)n1	< 3.60

Moving on to another compound below.
Consider the compound `CNC(=O)[C@H](Cc1ccc(C#N)cc1)Nc1nc(NCc2nc3cc(F)ccc3[nH]2)nc(Nc2cccc(CN3CCN(C=O)CC3)c2)n1` and give its recorded pIC50. < 3.60

====

# system-name: Human cGAS amino acids 155-522 (Homo sapiens)
# Construct: hexahistidine tag (N, cleaved yes)
# procedure-text: cGAS activity assay (DNA-activated cGAS, remaining ATP measured by Kinase-Glo Max luciferase assay)
# settings: 300 nM purified cGAS, 1 μM dsDNA, 250 μM ATP, 100 μM GTP, 37° C. for 1.25 hours
Please provide measured IC50 for the entries that follow.

structure	system-name	IC50
CN(C)C(=O)[C@H](Cc1ccc(C#N)cc1)Nc1nc(NCc2nc3cc(F)ccc3[nH]2)nc(Nc2cccc(CN3CCNCC3)c2)n1	Human cGAS amino acids 155-522 (Homo sapiens)	> 250 µM
COC(=O)[C@H](Cc1ccc(C#N)cc1)Nc1nc(NCc2nccn2C)nc(Nc2cccc(CN3CCNCC3)c2)n1	Human cGAS amino acids 155-522 (Homo sapiens)	> 250 µM

Moving on to another compound below.
Give IC50; test system Human cGAS amino acids 155-522 (Homo sapiens); compound `COC(=O)[C@H](Cc1ccc(C#N)cc1)Nc1nc(NCc2nc3cc(F)ccc3[nH]2)nc(Nc2cccc(CN3CCN(C(=O)c4nccnc4O)CC3)c2)n1` < 20 µM

====

Please provide measured IC50 for the entries that follow.
# system-name: Human cGAS amino acids 155-522 (Homo sapiens, UniProt Q8N884)
# Construct: hexahistidine tag (N, cleaved yes)
# procedure-text: cGAS activity assay (DNA-activated cGAS, remaining ATP measured by Kinase-Glo Max luciferase assay)
# settings: 300 nM purified cGAS, 1 μM dsDNA, 250 μM ATP, 100 μM GTP, 37° C. for 1.25 hours
# Protocol: IC50 values were determined as follows: Human cGAS sequence encoding amino acids 155-522 was cloned into a pET (EMD Millipore) based expression plasmid. […] Protein was expressed and purified from E. coli BL21 DE3 Rosetta 2 (EMD Millipore) cells using standard techniques. […] Protein was quantified using 280 nm absorbance. […] Reactions were stopped and ATP levels in the reaction were measured using a luciferase based assay. […] Luminescence was measured on a plate reader (Molecular Devices). […]

structure	system-name	IC50
COC(=O)[C@H](Cc1ccc(C#N)cc1)Nc1nc(Cl)nc(Nc2cccc(CN3CCN(C(=O)OC(C)(C)C)CC3)c2)n1	Human cGAS amino acids 155-522 (Homo sapiens, UniProt Q8N884)	> 250 µM
N#Cc1ccc(C[C@H](Nc2nc(NCc3nc4cc(F)ccc4[nH]3)nc(Nc3cccc(CN4CCN(C(=O)c5nccnc5O)CC4)c3)n2)C(=O)O)cc1	Human cGAS amino acids 155-522 (Homo sapiens, UniProt Q8N884)	< 20 µM

Required: IC50, one value per compound below.
1. COC(=O)[C@H](Cc1ccc(C#N)cc1)Nc1nc(NCc2nc3cc(Cl)ccc3[nH]2)nc(Nc2cccc(CN3CCNCC3)c2)n1
2. COCCOCCNC(=O)[C@H](Cc1ccc(C#N)cc1)Nc1nc(NCc2nc3cc(F)ccc3[nH]2)nc(Nc2cccc(CN3CCN(C(=O)c4nccnc4O)CC3)c2)n1

20 to 250 µM
< 20 µM

Required: IC50, one value per compound below.
1. CN(C)C(=O)[C@H](Cc1ccc(C#N)cc1)Nc1nc(Cl)nc(Nc2cccc(CN3CCNCC3)c2)n1
2. COC(=O)[C@H](Cc1ccc(C#N)cc1)Nc1nc(NCc2ccccc2)nc(Nc2cccc(CN3CCNCC3)c2)n1

["> 250 µM", "> 250 µM"]

====

Please provide measured IC50 for the entries that follow.
# system-name: Human cGAS amino acids 155-522 (Homo sapiens)
# Construct: hexahistidine tag (N, cleaved yes); made in house; host or cells: E. coli BL21 DE3 Rosetta 2
# procedure-text: cGAS activity assay (DNA-activated cGAS, remaining ATP measured by Kinase-Glo Max luciferase assay)
# Assay type: biochemical
# settings: 300 nM purified cGAS, 1 μM dsDNA, 250 μM ATP, 100 μM GTP, 37° C. for 1.25 hours
# Description: IC50 values were determined as follows: Human cGAS sequence encoding amino acids 155-522 was cloned into a pET (EMD Millipore) based expression plasmid. […] Protein was expressed and purified from E. coli BL21 DE3 Rosetta 2 (EMD Millipore) cells using standard techniques. […] Protein was quantified using 280 nm absorbance. […] Reactions were stopped and ATP levels in the reaction were measured using a luciferase based assay. […] Luminescence was measured on a plate reader (Molecular Devices). […]

structure	IC50
CN(C)C(=O)[C@H](Cc1ccc(C#N)cc1)Nc1nc(Cl)nc(Nc2cccc(CN3CCN(C(=O)OC(C)(C)C)CC3)c2)n1	> 250 µM
COC(=O)[C@H](Cc1ccc(C#N)cc1)Nc1nc(NCc2nnn[nH]2)nc(Nc2cccc(CN3CCN(C(=O)c4nccnc4O)CC3)c2)n1	> 250 µM

Give IC50; test system Human cGAS amino acids 155-522 (Homo sapiens); molecule `COC(=O)[C@H](Cc1ccc(C#N)cc1)Nc1nc(Nc2cccc(CN3CCN(C(=O)c4nccnc4O)CC3)c2)nc(N(C)CCc2nc3ccc(OC)cc3[nH]2)n1` < 20 µM

====

# system-name: Human cGAS amino acids 155-522 (Homo sapiens, UniProt Q8N884)
# Construct: hexahistidine tag (N, cleaved yes)
# procedure-text: cGAS activity assay (DNA-activated cGAS, remaining ATP measured by Kinase-Glo Max luciferase assay)
# settings: 300 nM purified cGAS, 1 μM dsDNA, 250 μM ATP, 100 μM GTP, 37° C. for 1.25 hours
pIC50: −log10 of the molar value.
quantity-measured: pIC50

Sample answers from the record:
structure	quantity-measured	result-value
COCCNC(=O)[C@H](Cc1ccc(C#N)cc1)Nc1nc(NCc2nc3cc(F)ccc3[nH]2)nc(Nc2cccc(CN3CCN(C(=O)c4nccnc4O)CC3)c2)n1	pIC50	> 4.70
COCCNc1nc(Nc2cccc(CN3CCNCC3)c2)nc(N[C@@H](Cc2ccc(C#N)cc2)C(=O)OC)n1	pIC50	< 3.60
COC(=O)[C@H](Cc1ccc(C#N)cc1)Nc1nc(Nc2cccc(CN3CCN(C(C)=O)CC3)c2)nc(N(Cc2nc3cc(F)ccc3[nH]2)C(C)=O)n1	pIC50	< 3.60
CNC(=O)[C@H](Cc1ccc(C#N)cc1)Nc1nc(NCc2nc3cc(F)ccc3[nH]2)nc(Nc2cccc(CN3CCNCC3)c2)n1	pIC50	< 3.60
COC(=O)[C@H](Cc1ccc(C#N)cc1)Nc1nc(NCc2nc3cc(Cl)ccc3[nH]2)nc(Nc2cccc(CN3CCN(C=O)CC3)c2)n1	pIC50	3.60 to 4.70
COCCNc1nc(Nc2cccc(CN3CCN(C(=O)c4nccnc4O)CC3)c2)nc(N[C@@H](Cc2ccc(C#N)cc2)C(=O)OC)n1	pIC50	< 3.60

Required: pIC50, one value per compound below.
1. COC(=O)[C@H](Cc1ccc(C#N)cc1)Nc1nc(NCc2nc3cc(F)ccc3[nH]2)nc(Nc2cccc(CN3CCN(C(=O)OC(C)(C)C)CC3)c2)n1
2. COC(=O)[C@H](Cc1ccc(C#N)cc1)Nc1ncnc(Nc2cccc(CN3CCN(C(=O)c4nccnc4O)CC3)c2)n1

1. < 3.60
2. < 3.60

The values you see were collected from patent US20210246122A1.
